- target-entity: Inward rectifier potassium channel 2 (Mus musculus) (UniProt P35561)
- Sequence (P35561 whole entry, looked up): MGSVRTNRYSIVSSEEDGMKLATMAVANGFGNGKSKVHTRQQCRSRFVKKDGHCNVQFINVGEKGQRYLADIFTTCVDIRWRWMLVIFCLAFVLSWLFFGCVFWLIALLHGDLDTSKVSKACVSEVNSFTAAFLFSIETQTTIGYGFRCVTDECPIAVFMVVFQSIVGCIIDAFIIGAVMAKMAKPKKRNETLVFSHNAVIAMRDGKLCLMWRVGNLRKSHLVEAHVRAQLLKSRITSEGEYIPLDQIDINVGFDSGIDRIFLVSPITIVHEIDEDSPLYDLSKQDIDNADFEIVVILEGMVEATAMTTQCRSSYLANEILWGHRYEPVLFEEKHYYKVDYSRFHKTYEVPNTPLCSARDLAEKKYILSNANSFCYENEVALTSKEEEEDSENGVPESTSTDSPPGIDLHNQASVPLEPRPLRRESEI
- method-notes: blocks the mouse Kir2.1 inward-rectifier potassium channel (AID 1672);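 also: channel flux triggered by added potassium and thallium sulfate stimulus; B-score of peak minus minimum fluorescence over baseline after thallium stimulus; more negative B-score means stronger Kir2.1 block with less thallium influx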
- conditions-used: HEK293-Kir2.1, FluxOR thallium flux fluorescence; at 10 µM
Among all 310,000 compounds or so, about 2,600 (0.84%) were called active.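 The calls were made as follows: active = fluorescence ratio B-score at or below minus 3 SD of library scores, with starting-brightness B-score within 2 SD (cut at about -4.2 in these data); inactive = the rest.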 Many of the other results were omitted from the sample, so actives are more common in it than they were.
Outcome codes: true (active), false (inactive)

molecule | discrete-label
COc1cccc(CN(C)CC(O)COC(c2ccccc2)c2ccccc2C)c1 (centres undefined) | true
O=C(NC(Cc1ccccc1)C(=O)N1CCCC(C(F)(F)F)C1)c1ccccc1 (centres undefined) | false
CCn1c(SCC(=O)c2ccc3ccccc3c2)nnc1-c1cccs1 | false
COc1cccc(CC2(CO)CCCN(CC3=Cc4cc(OC)ccc4OC3)C2)c1 (centres undefined) | false

----------
Known B-score of a selection of molecules
- target-entity: Inward rectifier potassium channel 2 (Mus musculus) (UniProt P35561)
- method-notes: blocks the mouse Kir2.1 inward-rectifier potassium channel (AID 1672);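 also: channel flux triggered by added potassium and thallium sulfate stimulus; B-score of peak minus minimum fluorescence over baseline after thallium stimulus; more negative B-score means stronger Kir2.1 block with less thallium influx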
- conditions-used: HEK293-Kir2.1, FluxOR thallium flux fluorescence; at 10 µM; active compounds read low
Hit rate of the full screen: of about 310,000 compounds, about 2,600 (0.84%) were called active. The sample as a whole holds a higher share of actives than the screen did.

molecule | target-entity | B-score
Cc1ccc2[nH]c3c(c2c1)CN(C(=O)CN1CCN(c2ccccc2)CC1)CC3 | Inward rectifier potassium channel 2 (Mus musculus) (UniProt P35561) | 0.62
COc1ccc(/C=C/CN2CCCC(C(=O)c3cc(F)ccc3F)C2)cc1 (stereo not drawn) | Inward rectifier potassium channel 2 (Mus musculus) (UniProt P35561) | -4.21
COc1cc(C(=O)N(C)Cc2cccc(OC)c2OC)ccc1OCC(=O)Nc1cccc(C(F)(F)F)c1 | Inward rectifier potassium channel 2 (Mus musculus) (UniProt P35561) | 1.36

----------
- target-entity: Inward rectifier potassium channel 2 (Mus musculus) (UniProt P35561)
- method-notes: blocks the mouse Kir2.1 inward-rectifier potassium channel (AID 1672);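 also: channel flux triggered by added potassium and thallium sulfate stimulus; B-score of peak minus minimum fluorescence over baseline after thallium stimulus; more negative B-score means stronger Kir2.1 block with less thallium influx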
- conditions-used: HEK293-Kir2.1, FluxOR thallium flux fluorescence; at 10 µM; active compounds read low
In all, about 310,000 compounds went through this assay and about 2,600 (0.84%) were called active. Many of the other results were omitted from the sample, so actives are more common in it than they were.
# class assignment by measured B-score: one: < -0.6; two: ≥ -0.6 and < 0.4; three: ≥ 0.4

molecule | discrete-label
CCCCCCCCCCCCN1[C@@H](CC(C)=O)c2cc(F)cc(F)c2S1(=O)=O | three
COc1ccc(C(=O)Nc2cccc(NC(=O)c3ccc(OC)cc3OC)n2)c(OC)c1 | three
Clc1ccc(-c2cc(-c3ccccn3)on2)c(Cl)c1 | three
COc1ccc(NC(=O)CCC(=O)N2CCN(S(=O)(=O)c3ccc(C)cc3)CC2)c(OC)c1 | two
COc1ccc(-c2nc3ccccc3c(=O)n2CCc2ccc(O)cc2)cc1 | two
CC(=O)Nc1cccc(C(=O)OCC(=O)Nc2nnc(-c3ccccc3)o2)c1 | one
CSc1ccc(Cl)c(C(=O)OCC(=O)N2CC(C)OC(C)C2)c1 (stereo unspecified) | one
O=C(CCNC(=O)Cn1ccc2ccccc2c1=O)NCCC1=CCCCC1 | two
COc1ccccc1S(=O)(=O)c1c(C)cc(C)[nH]c1=O | one
CC(C)CN(C(=O)c1ccc2c(c1)OCO2)C1CCS(=O)(=O)C1 (stereo unspecified) | one
O=C1c2ccccc2C(=O)c2c1cccc2N1CCN(C/C=C/c2ccccc2)CC1 | three
COc1ccccc1C(=O)N1CC2(C)CC1CC(C)(C)C2 (stereo unspecified) | one
COc1cc(CNCc2ccc(OC)c3ccccc23)cc(OC)c1OC | one
COc1ccccc1CCC(=O)OCC(=O)N1CCN(S(=O)(=O)c2ccc(C)cc2C)CC1 | two
COc1ccnc2c1c(=O)n(Cc1cccc(F)c1)c(=O)n2C | three
CC(C)CN(C(=O)COC(=O)c1ccc2ccccc2c1)c1c(N)n(Cc2ccccc2)c(=O)[nH]c1=O | three
Cc1cc(C)c(S(=O)(=O)c2ccc(F)cc2C)c(=O)[nH]1 | two
C=CCC1(C(=O)N(C)Cc2ccccc2)CCN(C(=O)OC(C)(C)C)CC1 | three
COCCCNC(=S)NC(=O)c1ccccc1 | two
CC1CN(C(=O)COC(=O)c2cccc(NS(=O)(=O)c3ccccc3)c2)CC(C)O1 (stereo unspecified) | one
O=C(Cc1cccc2ccccc12)NCCC1=CCCCC1 | one
Cc1ccccc1NC(=O)NCC1CCN(Cc2cccc(Cl)c2)CC1 | two
CC(Nc1nc(N2CCOCC2)nc2ccccc12)c1ccccc1 (stereo unspecified) | two
Cc1cccc(NC(=O)c2ccc(S(=O)(=O)N(C)CC3CCCO3)cc2)c1C (stereo unspecified) | three
COc1ccc(NC(=O)C(=O)NCC(c2ccco2)N2CCc3ccccc3C2)cc1 (stereo unspecified) | three
CCCCn1c(N)c(N(CC(C)C)C(=O)c2ccc(-n3c(C)ccc3C)cc2)c(=O)[nH]c1=O | one
Cc1cccc(C(=O)NCC(=O)OCC(=O)N2CC3(C)CC2CC(C)(C)C3)c1 (stereo unspecified) | three
Cc1ccc(C)c(CN2CCC(CNC(=O)Nc3ccc(C)c(F)c3)CC2)c1 | two
O=C(NCCc1c[nH]c2ccccc12)C1CCN(Cc2ccc(Br)cc2)CC1 | one
